# tested_target: D(1A) dopamine receptor (Rattus norvegicus)
# Sequence (P18901 whole entry): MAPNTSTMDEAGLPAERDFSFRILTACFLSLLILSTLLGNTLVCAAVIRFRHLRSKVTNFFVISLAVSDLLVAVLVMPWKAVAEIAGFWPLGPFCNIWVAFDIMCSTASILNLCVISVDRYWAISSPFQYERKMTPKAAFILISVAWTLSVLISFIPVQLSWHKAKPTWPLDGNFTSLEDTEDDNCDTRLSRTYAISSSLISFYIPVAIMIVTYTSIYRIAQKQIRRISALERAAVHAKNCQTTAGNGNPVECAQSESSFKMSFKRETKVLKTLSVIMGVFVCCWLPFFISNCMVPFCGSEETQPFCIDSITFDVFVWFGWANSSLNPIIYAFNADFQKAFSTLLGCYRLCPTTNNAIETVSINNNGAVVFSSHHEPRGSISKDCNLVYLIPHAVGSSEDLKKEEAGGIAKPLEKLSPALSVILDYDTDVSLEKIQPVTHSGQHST
# protocol_text: Binding affinity at dopamine D1 receptor in rat striatum by [3H][…] displacement.
Recorded IC50 values for a group of molecules are listed next.

Use the examples below as a reference point.
QUERY: Entry C(=C/C1CCCNC1)/c1ccccc1 (stereo not drawn) : reported IC50 = ?
RESULT: > 10 µM

QUERY: Please answer likewise for C=CCN1CCCC(/C=C/c2ccccc2)C1 (stereo not drawn)
RESULT: > 10 µM

Continuing:
QUERY: Entry C(=C\C1CCCN(CCc2ccccc2)C1)/c1ccccc1 (stereo not drawn) : reported IC50 = ?
RESULT: > 10 µM
